System: HEK-293T
experiment-description: Multiplex assay against HEK293T
Assay type: toxicity, cell-based
condition-context: human, 48 h, 1 µM, compound concentration 1 uM, replicate 1
Each entry gets no (0) if its Population Mitotic Cells (%) stays under 50%, and yes (1) if its Population Mitotic Cells (%) is 50% or above.

Example entries and their recorded answers appear below.
molecule=O=C(Cc1ccc(-c2ccc(OCCN3CCOCC3)cc2)cn1)NCc1ccccc1 class="no (0)"
molecule=CCCn1c(=O)c2[nH]c(-c3cnn(Cc4cccc(C(F)(F)F)c4)c3)nc2n(CC)c1=O class="no (0)"
molecule=O=C(Nc1ccc(Cl)cc1)Nc1cccc(-c2cccc(N3CCCC3)n2)c1 class="yes (1)"

Ask: Is the recorded value of Population Mitotic Cells (%) equal to or greater than 50% for this molecule? C=C1/C(=C\C=C2/CCC[C@]3(C)[C@@H]([C@H](C)/C=C/[C@H](C)C(C)C)CC[C@@H]23)C[C@@H](O)C[C@@H]1O
Result: yes (1)

Ask: Is the recorded value of Population Mitotic Cells (%) equal to or greater than 50% for this molecule? CCOC(=O)c1c(C)[nH]c2ccc3c(c12)CN1CCc2cc(OC)ccc2C1O3 (stereo not drawn)
Result: no (0)

Ask: Is the recorded value of Population Mitotic Cells (%) equal to or greater than 50% for this molecule? CCOc1cc2ncc(C#N)c(Nc3ccc(OCc4ccccn4)c(Cl)c3)c2cc1NC(=O)/C=C/CN(C)C
Result: no (0)

Ask: Is the recorded value of Population Mitotic Cells (%) equal to or greater than 50% for this molecule? COc1cc(N2CCN(C)CC2)ccc1Nc1ncc2c(n1)N(C)c1ccccc1C(=O)N2C
Result: yes (1)

Ask: Is the recorded value of Population Mitotic Cells (%) equal to or greater than 50% for this molecule? CN1CCC(=C2c3ccccc3CC(=O)c3sccc32)CC1.O=C(O)/C=C/C(=O)O [KETOTIFEN FUMARATE]
Result: yes (1)
